SYSTEM_UNDER_TEST: HLA-A*0201 (HLA-A2) heavy chain refolded with β2-microglobulin
ASSAY_REMARKS: radioligand binding
MEASUREMENT_LABEL: IC50 (nM)
Give just the number in nM; leave the unit off.

// recorded IC50 for AQApSIELPSM (peptide) : 58.7
